# targetOrTestSystem: MMP-2FL (full length Gelatinase A) (Homo sapiens)
# Sequence (P08253 110-660): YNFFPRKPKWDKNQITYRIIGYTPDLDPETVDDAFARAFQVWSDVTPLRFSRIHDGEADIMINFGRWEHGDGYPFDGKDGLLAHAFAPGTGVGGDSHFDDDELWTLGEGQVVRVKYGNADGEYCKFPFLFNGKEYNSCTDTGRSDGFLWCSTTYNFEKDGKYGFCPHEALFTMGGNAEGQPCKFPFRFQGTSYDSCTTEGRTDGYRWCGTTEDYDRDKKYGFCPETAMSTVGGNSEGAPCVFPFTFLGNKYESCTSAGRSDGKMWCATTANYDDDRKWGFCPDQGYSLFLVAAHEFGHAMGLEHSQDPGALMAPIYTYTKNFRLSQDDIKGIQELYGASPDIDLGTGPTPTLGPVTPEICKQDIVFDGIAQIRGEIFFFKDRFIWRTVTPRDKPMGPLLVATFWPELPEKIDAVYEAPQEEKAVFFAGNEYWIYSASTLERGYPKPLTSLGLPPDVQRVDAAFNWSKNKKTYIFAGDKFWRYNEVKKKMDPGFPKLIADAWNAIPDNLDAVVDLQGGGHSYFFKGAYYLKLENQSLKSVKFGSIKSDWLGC
# assayName: Thiopeptolide hydrolysis assay, MMP-2FL
# Format: biochemical
# testSettings: thiopeptolide substrate, HEPES pH 7.0, 22° C.
Answer each item with its documented log10 of IC50.
All values: log10 IC50 [µM].

Indicate the recorded log10 of IC50 value for this compound: `CC1(C)SCCN(S(=O)(=O)c2ccc(-c3ccc(F)cc3)cc2)[C@H]1C(=O)O` -0.88

Indicate the recorded log10 of IC50 value for this compound: `CC(C)(C)c1ccc(-c2ccc(S(=O)(=O)N3CCSC(C)(C)[C@@H]3C(=O)O)cc2)cc1` -0.64

Indicate the recorded log10 of IC50 value for this compound: `CC1(C)SCCN(S(=O)(=O)c2ccc(-c3ccc(-c4ccccc4)cc3)cc2)[C@H]1C(=O)O` -2.87

Indicate the recorded log10 of IC50 value for this compound: `CC1(C)SCCN(S(=O)(=O)c2ccc(-c3cccc(F)c3)cc2)[C@H]1C(=O)O` -0.87

Indicate the recorded log10 of IC50 value for this compound: `CC1(C)SCCN(S(=O)(=O)c2ccc(-c3ccc4ccccc4c3)cc2)[C@H]1C(=O)O` -2.20

Indicate the recorded log10 of IC50 value for this compound: `CC1(C)SCCN(S(=O)(=O)c2ccc(-c3ccc(F)c(Cl)c3)cc2)[C@H]1C(=O)O` -0.80

Indicate the recorded log10 of IC50 value for this compound: `CC1(C)SCCN(S(=O)(=O)c2ccc(-c3cccc(C=O)c3)cc2)[C@H]1C(=O)O` -1.46

Indicate the recorded log10 of IC50 value for this compound: `CN(C)c1ccc(-c2ccc(S(=O)(=O)N3CCSC(C)(C)[C@@H]3C(=O)O)cc2)cc1` -1.62

---

# targetOrTestSystem: MMP-3CD (catalytic domain of stromelysin-1) (Homo sapiens, UniProt P08254)
# Sequence (P08254 100-272 limits assumed): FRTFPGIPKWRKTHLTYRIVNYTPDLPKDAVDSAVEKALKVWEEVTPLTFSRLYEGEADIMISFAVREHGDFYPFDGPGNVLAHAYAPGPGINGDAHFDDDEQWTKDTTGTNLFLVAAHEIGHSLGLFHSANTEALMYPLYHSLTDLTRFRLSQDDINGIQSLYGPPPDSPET
# assayName: Thiopeptolide hydrolysis assay, MMP-3CD
# Type: biochemical
# testSettings: thiopeptolide substrate, MES pH 6.0
Answer each item with its documented IC50.
# output: bare number, implied unit µM

For MMP-3CD (catalytic domain of stromelysin-1) (Homo sapiens, UniProt P08254), give the measured IC50 of the entry CC(C)c1ccc(-c2ccc(S(=O)(=O)N3CCSC(C)(C)[C@@H]3C(=O)O)cc2)cc1 [Example 44] 0.0088

For MMP-3CD (catalytic domain of stromelysin-1) (Homo sapiens, UniProt P08254), give the measured IC50 of the entry CC1(C)SCCN(S(=O)(=O)c2ccc(-c3cccc(C=O)c3)cc2)[C@H]1C(=O)O [Example 35] 0.0154

For MMP-3CD (catalytic domain of stromelysin-1) (Homo sapiens, UniProt P08254), give the measured IC50 of the entry CC1(C)SCCN(S(=O)(=O)c2ccc(-c3ccc(C=O)cc3)cc2)[C@H]1C(=O)O [Example 30] 0.0154

For MMP-3CD (catalytic domain of stromelysin-1) (Homo sapiens, UniProt P08254), give the measured IC50 of the entry CCOc1ccc(-c2ccc(S(=O)(=O)N3CCSC(C)(C)[C@@H]3C(=O)O)cc2)cc1 [Example 43] 0.0038

For MMP-3CD (catalytic domain of stromelysin-1) (Homo sapiens, UniProt P08254), give the measured IC50 of the entry CC1(C)[C@H](C(=O)NO)N(S(=O)(=O)c2ccc(-c3ccc(Br)cc3)cc2)CCS1(=O)=O [Example 4] 0.003

For MMP-3CD (catalytic domain of stromelysin-1) (Homo sapiens, UniProt P08254), give the measured IC50 of the entry CN(C)c1ccc(-c2ccc(S(=O)(=O)N3CCSC(C)(C)[C@@H]3C(=O)O)cc2)cc1 [Example 54] 0.03

For MMP-3CD (catalytic domain of stromelysin-1) (Homo sapiens, UniProt P08254), give the measured IC50 of the entry CC1(C)SCCN(S(=O)(=O)c2ccc(-c3ccccc3C=O)cc2)[C@H]1C(=O)O [Example 63] 21

For MMP-3CD (catalytic domain of stromelysin-1) (Homo sapiens, UniProt P08254), give the measured IC50 of the entry CC1(C)SCCN(S(=O)(=O)c2ccc(-c3ccc(Cl)s3)cc2)[C@H]1C(=O)O [Example 50] 0.019

For MMP-3CD (catalytic domain of stromelysin-1) (Homo sapiens, UniProt P08254), give the measured IC50 of the entry Cc1cc(-c2ccc(S(=O)(=O)N3CCSC(C)(C)[C@@H]3C(=O)O)cc2)ccc1F [Example 51] 0.01

For MMP-3CD (catalytic domain of stromelysin-1) (Homo sapiens, UniProt P08254), give the measured IC50 of the entry CC1(C)SCCN(S(=O)(=O)c2ccc(-c3cccc4ccccc34)cc2)[C@H]1C(=O)O [Example 28] 2.2

For MMP-3CD (catalytic domain of stromelysin-1) (Homo sapiens, UniProt P08254), give the measured IC50 of the entry Cc1ccc(-c2ccc(S(=O)(=O)N3CCSC(C)(C)[C@@H]3C(=O)O)cc2)s1 [Example 52] 0.014

For MMP-3CD (catalytic domain of stromelysin-1) (Homo sapiens, UniProt P08254), give the measured IC50 of the entry CC1(C)SCCN(S(=O)(=O)c2ccc(-c3ccc(-c4ccccc4)c(F)c3)cc2)[C@H]1C(=O)O [Example 53] 0.0072

For MMP-3CD (catalytic domain of stromelysin-1) (Homo sapiens, UniProt P08254), give the measured IC50 of the entry CC1(C)SCCN(S(=O)(=O)c2ccc(-c3ccc(F)c(Cl)c3)cc2)[C@H]1C(=O)O [Example 42] 0.0289

For MMP-3CD (catalytic domain of stromelysin-1) (Homo sapiens, UniProt P08254), give the measured IC50 of the entry CC(C)(C)c1ccc(-c2ccc(S(=O)(=O)N3CCSC(C)(C)[C@@H]3C(=O)O)cc2)cc1 [Example 49] 0.039

For MMP-3CD (catalytic domain of stromelysin-1) (Homo sapiens, UniProt P08254), give the measured IC50 of the entry CC1(C)SCCN(S(=O)(=O)c2ccc(-c3cccc(F)c3)cc2)[C@H]1C(=O)O [Example 58] 0.082

---

# targetOrTestSystem: MMP-9FL (full length Gelatinase B) (Homo sapiens)
# Sequence (P14780 94-707, species assumed): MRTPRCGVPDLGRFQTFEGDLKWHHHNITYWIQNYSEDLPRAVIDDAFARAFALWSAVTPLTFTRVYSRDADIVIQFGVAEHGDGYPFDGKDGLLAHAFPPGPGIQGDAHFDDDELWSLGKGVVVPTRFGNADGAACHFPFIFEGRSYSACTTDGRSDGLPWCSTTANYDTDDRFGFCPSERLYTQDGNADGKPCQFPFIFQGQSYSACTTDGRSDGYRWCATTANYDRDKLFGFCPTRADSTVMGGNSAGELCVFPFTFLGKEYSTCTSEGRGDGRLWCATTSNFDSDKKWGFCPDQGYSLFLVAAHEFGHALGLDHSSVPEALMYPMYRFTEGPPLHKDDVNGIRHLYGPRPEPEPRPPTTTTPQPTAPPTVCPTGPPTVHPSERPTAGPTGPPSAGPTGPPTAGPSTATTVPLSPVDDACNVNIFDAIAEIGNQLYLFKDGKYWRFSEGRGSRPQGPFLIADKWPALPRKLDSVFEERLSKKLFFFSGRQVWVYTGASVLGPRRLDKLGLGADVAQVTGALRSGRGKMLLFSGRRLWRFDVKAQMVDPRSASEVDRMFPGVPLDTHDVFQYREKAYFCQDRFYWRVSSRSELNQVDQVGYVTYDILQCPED
# assayName: Thiopeptolide hydrolysis assay, MMP-9FL
# Format: biochemical
# testSettings: thiopeptolide substrate, HEPES pH 7.0, 22° C.
metric: IC50 (µM)
# output: bare number, implied unit µM

Indicate the recorded IC50 value for this molecule: `CC1(C)[C@H](C(=O)NO)N(S(=O)(=O)c2ccc(-c3ccc(Br)cc3)cc2)CCS1(=O)=O` 0.004

Indicate the recorded IC50 value for this molecule: `CC1(C)SCCN(S(=O)(=O)c2ccc(-c3ccc(F)c(F)c3)cc2)[C@H]1C(=O)O` 6.65

Indicate the recorded IC50 value for this molecule: `CC1(C)SCCN(S(=O)(=O)c2ccc(-c3ccc(F)c(Cl)c3)cc2)[C@H]1C(=O)O` 9.15

Indicate the recorded IC50 value for this molecule: `CC1(C)SCCN(S(=O)(=O)c2ccc(-c3ccc(CO)cc3)cc2)[C@H]1C(=O)O` 0.063

---

# targetOrTestSystem: MMP-1FL (full length interstitial collagenase) (Homo sapiens, UniProt P03956)
# Sequence (P03956 100-469, species assumed): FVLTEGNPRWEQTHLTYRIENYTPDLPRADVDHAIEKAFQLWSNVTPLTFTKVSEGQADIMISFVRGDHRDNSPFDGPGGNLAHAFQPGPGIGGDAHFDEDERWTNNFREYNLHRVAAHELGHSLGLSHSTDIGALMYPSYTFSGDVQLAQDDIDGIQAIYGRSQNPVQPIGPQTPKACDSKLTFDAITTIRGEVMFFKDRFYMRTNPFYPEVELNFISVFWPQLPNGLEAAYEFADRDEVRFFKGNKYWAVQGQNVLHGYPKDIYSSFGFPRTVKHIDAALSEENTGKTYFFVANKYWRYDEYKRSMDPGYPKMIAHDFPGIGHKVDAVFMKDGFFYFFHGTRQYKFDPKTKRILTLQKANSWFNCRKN
# assayName: Thiopeptolide hydrolysis assay, MMP-1FL
# Type: biochemical
# testSettings: thiopeptolide substrate, HEPES pH 7.0, 22° C.
Answer each item with its documented IC50.
# output: bare number, implied unit µM

For MMP-1FL (full length interstitial collagenase) (Homo sapiens, UniProt P03956), give the measured IC50 of the entry `CCc1ccc(-c2ccc(S(=O)(=O)N3CCSC(C)(C)[C@@H]3C(=O)O)cc2)cc1` 5.4

For MMP-1FL (full length interstitial collagenase) (Homo sapiens, UniProt P03956), give the measured IC50 of the entry `CC1(C)SCCN(S(=O)(=O)c2ccc(-c3ccc(-c4ccccc4)cc3)cc2)[C@H]1C(=O)O` 1.17

For MMP-1FL (full length interstitial collagenase) (Homo sapiens, UniProt P03956), give the measured IC50 of the entry `CC1(C)SCCN(S(=O)(=O)c2ccc(-c3ccc(-c4ccccc4)c(F)c3)cc2)[C@H]1C(=O)O` 3.15

For MMP-1FL (full length interstitial collagenase) (Homo sapiens, UniProt P03956), give the measured IC50 of the entry `CC1(C)[C@H](C(=O)NO)N(S(=O)(=O)c2ccc(-c3ccc(Br)cc3)cc2)CCS1(=O)=O` 0.005

For MMP-1FL (full length interstitial collagenase) (Homo sapiens, UniProt P03956), give the measured IC50 of the entry `CC1(C)SCCN(S(=O)(=O)c2ccc(-c3ccc(F)cc3F)cc2)[C@H]1C(=O)O` 3.25

For MMP-1FL (full length interstitial collagenase) (Homo sapiens, UniProt P03956), give the measured IC50 of the entry `CC1(C)SCCN(S(=O)(=O)c2ccc(-c3ccc(OC(F)(F)F)cc3)cc2)[C@H]1C(=O)O` 5.75
